Kindly supply the reported drug sensitivity score values for the records listed here.
tested on: CAF#7 (primary prostate cancer-associated fibroblasts of myCAF-like type); experiment: drug sensitivity score (DSS2, normalised partial AUC of dose-response, 72 h CellTiter-Glo viability) (DSS (dimensionless)); higher = more sensitive (stronger growth inhibition / cytotoxicity); extreme values may be limits of the assay
When you answer, write just the number.

Lookup: Entry NC(=S)N/N=C/c1ncccc1N [Triapine] (tested concentration range 1-10000 nM) : reported drug sensitivity score = ?
Found: 0.8

Lookup: Same lookup for COC(=O)c1ccc2c(c1)NC(=O)/C2=C(\Nc1ccc(N(C)C(=O)CN2CCN(C)CC2)cc1)c1ccccc1 [Nintedanib] (tested concentration range 1-10000 nM) , please.
Found: 10.5

Lookup: Same lookup for C=CC(=O)N1CCC[C@@H](n2nc(-c3ccc(Oc4ccccc4)cc3)c3c(N)ncnc32)C1 [Ibrutinib] (tested concentration range 0.1-1000 nM) , please.
Found: 0

Lookup: Same lookup for Cc1cccc(CC(=O)N2CCc3c2ccc(-c2cn(C)c4ncnc(N)c24)c3F)n1 (tested concentration range 0.2-2500 nM) , please.
Found: 0

Lookup: Same lookup for Cc1c(N)nc([C@H](CC(N)=O)NC[C@H](N)C(N)=O)nc1C(=O)N[C@H](C(=O)N[C@H](C)[C@@H](O)[C@H](C)C(=O)N[C@H](C(=O)NCCc1nc(-c2nc(C(=O)NCCC[S+](C)C)cs2)cs1)[C@@H](C)O)[C@@H](OC1OC(CO)C(O)C(O)C1OC1OC(CO)C(O)C(OC(N)=O)C1O)c1cnc[nH]1 (some centres not stated) [Bleomycin] (tested concentration range 1-10000 nM) , please.
Found: 9.7

Lookup: Same lookup for O=C(c1ccc(F)c(F)c1Nc1ccc(I)cc1F)N1CC(O)([C@@H]2CCCCN2)C1 [Cobimetinib] (tested concentration range 0.1-1000 nM) , please.
Found: 5.3

Lookup: Same lookup for COc1nc(N)nc2c1ncn2[C@@H]1O[C@H](CO)[C@@H](O)[C@@H]1O [Nelarabine] (tested concentration range 1-10000 nM) , please.
Found: 0

Lookup: Same lookup for Cc1cnc(Nc2ccc(OCCN3CCCC3)cc2)nc1Nc1cccc(S(=O)(=O)NC(C)(C)C)c1 [Fedratinib] (tested concentration range 1-10000 nM) , please.
Found: 9.6

Lookup: Same lookup for Cn1cc(-c2ccc(F)c(C(F)(F)F)c2)nc1C1CCN(c2ncnc3[nH]ncc23)CC1 (tested concentration range 1-10000 nM) , please.
Found: 0.4

Lookup: Same lookup for C[C@@H]1C[C@H]2[C@@H]3CCC4=CC(=O)C=C[C@]4(C)[C@@]3(F)[C@@H](O)C[C@]2(C)[C@@]1(O)C(=O)CO [Dexamethasone] (tested concentration range 1-10000 nM) , please.
Found: 0.3

Lookup: Same lookup for CC(C)NC[C@@H](C(=O)N1CCN(c2ncnc3c2[C@H](C)C[C@H]3O)CC1)c1ccc(Cl)cc1 [Ipatasertib] (tested concentration range 1-10000 nM) , please.
Found: 0

Lookup: Same lookup for Cc1nc(NC(=O)N2CCC[C@H]2C(N)=O)sc1-c1ccnc(C(C)(C)C(F)(F)F)c1 [Alpelisib] (tested concentration range 0.2-2500 nM) , please.
Found: 3.4

Lookup: Same lookup for CCCCNc1ncc(C(=O)NCc2ccc(-n3ccnc3)cc2)c(NC2CCC(O)CC2)n1 (configuration not stated) [UNC2881] (tested concentration range 0.2-2500 nM) , please.
Found: 4.8

Lookup: Same lookup for Nc1cc(COc2c(Cl)cc(C[C@H](N)C(=O)O)cc2Cl)c2oc(-c3ccccc3)nc2c1 [JPH203] (tested concentration range 0.5-5000 nM) , please.
Found: 0

Lookup: Same lookup for CN[C@@H](C)C(=O)N[C@H](C(=O)N1CCC[C@H]1c1nc(C(=O)c2ccc(F)cc2)cs1)C1CCCCC1 [NVP-LCL161] (tested concentration range 2.5-25000 nM) , please.
Found: 2

Lookup: Same lookup for Oc1ncnc2[nH]ncc12 [Allopurinol] (tested concentration range 1-10000 nM) , please.
Found: 0

Lookup: Same lookup for Nc1cccc2c1CN(C1CCC(=O)NC1=O)C2=O (configuration not stated) [Lenalidomide] (tested concentration range 10-100000 nM) , please.
Found: 0

Lookup: Same lookup for CC/C(=C(\c1ccccc1)c1ccc(OCCN(C)C)cc1)c1ccccc1 [Tamoxifen] (tested concentration range 1-10000 nM) , please.
Found: 1.9

Lookup: Same lookup for CCS(=O)(=O)N1CCN(c2ccc(Nc3ncc(C(N)=O)c(NC4CC4)n3)cc2)CC1 [Cerdulatinib] (tested concentration range 1-10000 nM) , please.
Found: 0.1

Lookup: Same lookup for Cc1cn(-c2cc(NC(=O)c3ccc(C)c(Nc4nccc(-c5cccnc5)n4)c3)cc(C(F)(F)F)c2)cn1 [Nilotinib] (tested concentration range 1-10000 nM) , please.
Found: 0

Lookup: Same lookup for CC#CC(=O)N1CCC[C@H]1c1nc(-c2ccc(C(=O)Nc3ccccn3)cc2)c2c(N)nccn12 [Acalabrutinib] (tested concentration range 0.1-1000 nM) , please.
Found: 0

Lookup: Same lookup for CCN(CC)Cc1ccc2cc(COC(=O)Nc3ccc(C(=O)NO)cc3)ccc2c1 [Givinostat] (tested concentration range 0.1-1000 nM) , please.
Found: 3.1

###

tested on: CAF#3 (primary prostate cancer-associated fibroblasts of myCAF-like type); experiment: drug sensitivity score (DSS2, normalised partial AUC of dose-response, 72 h CellTiter-Glo viability) (DSS (dimensionless)); higher = more sensitive (stronger growth inhibition / cytotoxicity); extreme values may be limits of the assay
Kindly supply the reported drug sensitivity score values for the records listed here.

Lookup: Entry O=C(Nc1ccc(OC(F)(F)Cl)cc1)c1cnc(N2CC[C@@H](O)C2)c(-c2cc[nH]n2)c1 [Asciminib] (tested concentration range 0.1-1000 nM) : reported drug sensitivity score = ?
Found: 0

Lookup: Same lookup for CC(=O)c1c(C)c2cnc(Nc3ccc(N4CCNCC4)cn3)nc2n(C2CCCC2)c1=O [Palbociclib] (tested concentration range 1-10000 nM) , please.
Found: 0

Lookup: Same lookup for CCN(CC)CCNC(=O)c1c(C)[nH]c(/C=C2\C(=O)Nc3ccc(F)cc32)c1C [Sunitinib] (tested concentration range 0.1-1000 nM) , please.
Found: 2.8

Lookup: Same lookup for C=CC(=O)N1CC/C(=C\c2ccc(F)c([N+](=O)[O-])c2)C(=O)/C(=C/c2ccc(F)c([N+](=O)[O-])c2)C1 [VLX1570] (tested concentration range 1-10000 nM) , please.
Found: 17.3

Lookup: Same lookup for CC/C(=C(\c1ccccc1)c1ccc(OCCN(C)C)cc1)c1ccccc1 [Tamoxifen] (tested concentration range 1-10000 nM) , please.
Found: 2.5

Lookup: Same lookup for C[C@@H](NC(=O)c1ncnc(N)c1Cl)c1ncc(C(=O)Nc2cc(C(F)(F)F)c(Cl)cn2)s1 [TAK-580] (tested concentration range 1-10000 nM) , please.
Found: 0.5

###

system: CAF#3; experiment: drug sensitivity score (DSS2, normalised partial AUC of dose-response, 72 h CellTiter-Glo viability) (DSS (dimensionless)); higher = more sensitive (stronger growth inhibition / cytotoxicity); extreme values may be limits of the assay
Kindly supply the reported drug sensitivity score values for the records listed here.
When you answer, write just the number.

Lookup: Entry COc1ccc(Cn2ccc3ccc(C(=O)NO)cc32)cc1 (tested concentration range 1-10000 nM) : reported drug sensitivity score = ?
Found: 2.9

Lookup: Same lookup for CNc1nc(Nc2cn(C(C)(C)C#N)nc2C)ncc1C(F)(F)F [GNE-0877] (tested concentration range 0.1-1000 nM) , please.
Found: 0

Lookup: Same lookup for N#Cc1ccc(C(c2ccc(C#N)cc2)n2cncn2)cc1 [Letrozole] (tested concentration range 1-10000 nM) , please.
Found: 0

Lookup: Same lookup for CC[C@]1(O)C[C@@H]2CN(CCc3c([nH]c4ccccc34)[C@@](C(=O)OC)(c3cc4c(cc3OC)N(C)[C@H]3[C@@](O)(C(=O)OC)[C@H](OC(C)=O)[C@]5(CC)C=CCN6CC[C@]43[C@@H]65)C2)C1 [Vinblastine] (tested concentration range 0.1-1000 nM) , please.
Found: 2.8

Lookup: Same lookup for COC(=O)C[C@](O)(CCCC(C)(C)O)C(=O)O[C@@H]1C(OC)=C[C@]23CCCN2CCc2cc4c(cc2[C@H]13)OCO4 [Omacetaxine] (tested concentration range 1-10000 nM) , please.
Found: 20.6

Lookup: Same lookup for CCN(CC)CCCC(C)Nc1c2ccc(Cl)cc2nc2ccc(OC)cc12 (stereo unspecified) [Mepacrine] (tested concentration range 5-50000 nM) , please.
Found: 11.3

###

Kindly supply the reported drug sensitivity score values for the records listed here.
system: CAF#3; assay: drug sensitivity score (DSS2, normalised partial AUC of dose-response, 72 h CellTiter-Glo viability) (DSS (dimensionless)); higher = more sensitive (stronger growth inhibition / cytotoxicity); extreme values may be limits of the assay
When you answer, write just the number.

Lookup: Test system CAF#3; read-out drug sensitivity score; what value for CC[C@H](Nc1ncnc2[nH]cnc12)c1nc2cccc(F)c2c(=O)n1-c1ccccc1 [Idelalisib] (tested concentration range 1-10000 nM) ?
Found: 4.6

Lookup: Same lookup for CC(O)(CS(=O)(=O)c1ccc(F)cc1)C(=O)Nc1ccc(C#N)c(C(F)(F)F)c1 (centres undefined) [Bicalutamide] (tested concentration range 1-10000 nM) , please.
Found: 1.4

Lookup: Same lookup for Cc1cc(Nc2ncc(Cl)c(Nc3ccccc3S(=O)(=O)C(C)C)n2)c(OC(C)C)cc1C1CCNCC1 [Ceritinib] (tested concentration range 0.2-2500 nM) , please.
Found: 3

Lookup: Same lookup for Cc1c2oc3c(C)ccc(C(=O)N[C@@H]4C(=O)N[C@H](C(C)C)C(=O)N5CCC[C@H]5C(=O)N(C)CC(=O)N(C)[C@@H](C(C)C)C(=O)O[C@@H]4C)c3nc-2c(C(=O)N[C@@H]2C(=O)N[C@H](C(C)C)C(=O)N3CCC[C@H]3C(=O)N(C)CC(=O)N(C)[C@@H](C(C)C)C(=O)O[C@@H]2C)c(N)c1=O [Dactinomycin] (tested concentration range 0.1-1000 nM) , please.
Found: 23
